# targetUnderTest: canine TRPM8 (Canis lupus familiaris, UniProt Q1A7N1)
# Construct: expressed in transfected cells
# Sequence (Q1A7N1 1-1104): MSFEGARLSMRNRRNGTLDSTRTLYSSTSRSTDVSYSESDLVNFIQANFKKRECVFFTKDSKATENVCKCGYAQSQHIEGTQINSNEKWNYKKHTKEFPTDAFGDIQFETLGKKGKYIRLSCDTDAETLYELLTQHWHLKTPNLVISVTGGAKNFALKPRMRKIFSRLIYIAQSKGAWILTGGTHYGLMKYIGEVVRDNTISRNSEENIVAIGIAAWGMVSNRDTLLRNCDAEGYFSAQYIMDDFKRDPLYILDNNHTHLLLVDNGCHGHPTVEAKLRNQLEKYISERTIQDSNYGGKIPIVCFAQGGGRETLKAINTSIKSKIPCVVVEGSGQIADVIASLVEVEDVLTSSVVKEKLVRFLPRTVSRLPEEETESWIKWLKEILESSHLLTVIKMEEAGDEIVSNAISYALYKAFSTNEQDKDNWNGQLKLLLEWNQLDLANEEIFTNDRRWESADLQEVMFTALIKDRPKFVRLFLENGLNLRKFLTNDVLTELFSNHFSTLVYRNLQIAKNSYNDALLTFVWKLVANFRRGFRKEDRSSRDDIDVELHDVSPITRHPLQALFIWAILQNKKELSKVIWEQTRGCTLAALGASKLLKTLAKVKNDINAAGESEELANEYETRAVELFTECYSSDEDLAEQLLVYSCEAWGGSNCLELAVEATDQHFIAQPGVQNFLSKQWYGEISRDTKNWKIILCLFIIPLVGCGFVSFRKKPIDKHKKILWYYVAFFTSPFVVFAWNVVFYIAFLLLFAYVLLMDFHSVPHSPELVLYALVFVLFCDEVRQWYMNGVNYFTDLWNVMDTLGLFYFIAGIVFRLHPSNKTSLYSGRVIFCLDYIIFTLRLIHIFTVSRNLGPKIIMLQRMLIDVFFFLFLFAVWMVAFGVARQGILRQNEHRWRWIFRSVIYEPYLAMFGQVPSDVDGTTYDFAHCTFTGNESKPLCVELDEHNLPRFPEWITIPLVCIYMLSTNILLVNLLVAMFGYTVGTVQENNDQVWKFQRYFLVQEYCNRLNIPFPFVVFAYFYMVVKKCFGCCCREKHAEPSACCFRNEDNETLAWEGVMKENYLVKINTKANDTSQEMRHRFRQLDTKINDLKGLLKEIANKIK
# testName: In Vitro Canine TRPM8 Functional Assay (Ca2+ fluorescence, icilin activation)
# Assay type: cell-based
# conditionDetails: HEK293, 0.2 μM compound; canine TRPM8 HEK293; icilin
reportedEndpoint: inhibition at 0.2 µM (%)

INSERT INTO measurements (compound, valueunit, resultnumber) VALUES
  ('O=C(C(Nc1ccccc1F)c1ccc(Br)cc1)N1CCCc2ccccc21 (stereo not shown)', '%', 94),
  ('CN(C)c1ccc(C2CCCN2C(=O)C(Nc2ccccc2F)c2ccc(Br)cc2)cc1 (stereo not shown)', '%', 90),
  ('COC(=O)c1cccc(C2CCCN2C(=O)C(Nc2ccccc2F)c2cc3ccccc3s2)c1 (stereo not shown)', '%', 101),
  ('CCOC(=O)c1ccc(C(Nc2ccccc2F)C(=O)N2CCC[C@H]2c2ccccc2F)cc1 (mixture of isomers)', '%', 102);
